// reported pIC50 for each item listed
Target: Proteasome subunit beta type-9 (Homo sapiens, UniProt P28065)
Sequence (P28065 whole entry): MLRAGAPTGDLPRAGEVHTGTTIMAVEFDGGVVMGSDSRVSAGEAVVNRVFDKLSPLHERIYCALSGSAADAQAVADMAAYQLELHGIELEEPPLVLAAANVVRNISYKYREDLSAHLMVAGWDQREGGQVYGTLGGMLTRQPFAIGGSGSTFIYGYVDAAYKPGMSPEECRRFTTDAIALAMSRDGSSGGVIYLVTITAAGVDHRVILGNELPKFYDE
Assay: Inhibition of human caspase-like activity of 20s proteasome beta 1i subunit using SUC-PAL-AMC as flurogenic substrate preincubated for 15 mins followed by substrate addition and measured after 1 hr by fluorescence assay
Recall that pIC50 is obtained by taking minus log10 of the concentration measured in molar.

• COc1ccc(C[C@H](NC(=O)[C@@H](C)NC(=O)N2CCC[C@@H](OC)C2)C(=O)N[C@@H](Cc2ccccc2)C(=O)[C@@]2(C)CO2)cc1 = 5.37
• COc1ccc(C[C@H](NC(=O)[C@@H](C)NC(=O)N2CC[C@H](OC)C2)C(=O)N[C@@H](Cc2ccccc2)C(=O)[C@@]2(C)CO2)cc1 = 5.24

Now take the following molecule into account.
Look up pIC50: C[C@H](NC(=O)N1CCC(NC(=O)c2nccs2)CC1)C(=O)N[C@@H](Cc1c[nH]c2ccccc12)C(=O)N[C@@H](Cc1ccccc1)C(=O)[C@@]1(C)CO1 6.81

###

Molecular target: Proteasome Macropain subunit MB1 (Homo sapiens, UniProt P28074)
Sequence (P28074 whole entry): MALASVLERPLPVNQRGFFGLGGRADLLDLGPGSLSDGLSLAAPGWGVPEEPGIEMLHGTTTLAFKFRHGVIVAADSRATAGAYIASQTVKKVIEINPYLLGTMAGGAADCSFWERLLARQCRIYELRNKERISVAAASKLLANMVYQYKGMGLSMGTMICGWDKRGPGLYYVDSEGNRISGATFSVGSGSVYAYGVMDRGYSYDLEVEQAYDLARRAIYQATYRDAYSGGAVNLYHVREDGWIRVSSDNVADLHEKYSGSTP
Test: Inhibition of chymotrypsin-like activity of human 20s proteasome beta 5c subunit using suc-WLA-AMC as flurogenic substrate preincubated for 15 mins followed by substrate addition and measured after 1 hr by fluorescence assay
// reported pIC50 per item
Answer as the number alone; pIC50 is minus log10 of concentration in mol/L.

* COc1ccc(C[C@H](NC(=O)[C@@H](C)NC(=O)N2CC[C@@H](OC)C2)C(=O)N[C@@H](Cc2ccccc2)C(=O)[C@@]2(C)CO2)cc1 | 5.83
* COc1ccc(C[C@H](NC(=O)[C@@H](C)NC(=O)N2CCC(OC)CC2)C(=O)N[C@@H](Cc2ccccc2)C(=O)[C@@]2(C)CO2)cc1 | 6.19

Using the record for COc1ccc(C[C@H](NC(=O)[C@H](C)NC(=O)N2CCC(OC)C2)C(=O)N[C@@H](Cc2ccccc2)C(=O)[C@@]2(C)CO2)cc1 (stereo partly drawn) , report its pIC50. 6.53

###

Target: Proteasome subunit beta type-8 (Homo sapiens, UniProt P28062)
Sequence (P28062 whole entry): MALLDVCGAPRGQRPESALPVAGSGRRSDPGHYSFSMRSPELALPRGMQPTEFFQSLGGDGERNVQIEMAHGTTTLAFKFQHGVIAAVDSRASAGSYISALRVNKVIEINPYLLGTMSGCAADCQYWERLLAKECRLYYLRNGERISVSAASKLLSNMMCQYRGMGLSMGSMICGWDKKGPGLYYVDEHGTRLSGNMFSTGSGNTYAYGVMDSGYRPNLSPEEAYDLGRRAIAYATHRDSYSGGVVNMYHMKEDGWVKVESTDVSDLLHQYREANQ
Test: Inhibition of human proteasome subunit beta-5i chymotrypsin like activity using SUC-ANW-AMC as flurogenic substrate preincubated for 15 mins followed by substrate addition and measured after 1 hr by fluorescence assay
readout_type: IC50 (nM)
Enter your answer as a number in nM; do not include the unit.

These solved cases illustrate the format of a correct answer.
* C[C@@H](NC(=O)N1CCC(NC(=O)c2nccs2)CC1)C(=O)N[C@@H](Cc1c[nH]c2ccccc12)C(=O)N[C@@H](CC1CCCCC1)C(=O)[C@@]1(C)CO1 | 719
* C[C@H](NC(=O)N1CCC(NC(=O)c2nccs2)CC1)C(=O)N[C@@H](Cc1c[nH]c2ccccc12)C(=O)N[C@@H](Cc1ccccc1)C(=O)[C@@]1(C)CO1 | 21.1

For COc1ccc(C[C@H](NC(=O)[C@H](C)NC(=O)N2CCCC2)C(=O)N[C@@H](Cc2ccccc2)C(=O)[C@@]2(C)CO2)cc1 , what is its reported IC50? 246

I'd like to know its IC50. The compound in question is COc1ccc(C[C@H](NC(=O)[C@H](C)NC(=O)N2CCc3ccccc3C2)C(=O)N[C@@H](Cc2ccccc2)C(=O)[C@@]2(C)CO2)cc1 37.8

Any idea what IC50 was measured for COc1ccc(C[C@H](NC(=O)[C@@H](C)NC(=O)N2CCC[C@H](OC)C2)C(=O)N[C@@H](Cc2ccccc2)C(=O)[C@@]2(C)CO2)cc1 ? 37.7

Quick one: IC50 of COc1ccc(C[C@H](NC(=O)[C@H](C)NC(=O)N2CCC(OC)C2)C(=O)N[C@@H](Cc2ccccc2)C(=O)[C@@]2(C)CO2)cc1 (stereo partly specified) ? 56.8

###

Assay: Selectivity ratio of IC50 for chymotrypsin-like activity of human 20s proteasome beta 5c subunit to IC50 for human proteasome subunit beta-5i chymotrypsin like activity
readout_type: Ratio IC50
A bare number is all that is needed in reply.

* COc1ccc(C[C@H](NC(=O)[C@@H](C)NC(=O)N2CCC[C@H](OC)C2)C(=O)N[C@@H](Cc2ccccc2)C(=O)[C@@]2(C)CO2)cc1 | 4.3
* COc1ccc(C[C@H](NC(=O)[C@H](C)NC(=O)N2CCC(OC)CC2)C(=O)N[C@@H](Cc2ccccc2)C(=O)[C@@]2(C)CO2)cc1 | 3.9
* C[C@@H](NC(=O)N1CCC(NC(=O)c2nccs2)CC1)C(=O)N[C@@H](Cc1c[nH]c2ccccc12)C(=O)N[C@@H](CC1CCCCC1)C(=O)[C@@]1(C)CO1 | 1.5
* COc1ccc(C[C@H](NC(=O)[C@@H](C)NC(=O)N2CCCC2)C(=O)N[C@@H](Cc2ccccc2)C(=O)[C@@]2(C)CO2)cc1 | 21.2

Need Ratio IC50 of C[C@H](NC(=O)N1CCC(NC(=O)c2nccs2)CC1)C(=O)N[C@@H](Cc1c[nH]c2ccccc12)C(=O)N[C@@H](Cc1ccccc1)C(=O)[C@@]1(C)CO1 , thanks. 1.2

Any idea what Ratio IC50 was measured for COc1ccc(C[C@H](NC(=O)[C@H](C)NC(=O)N2CCC(OC)C2)C(=O)N[C@@H](Cc2ccccc2)C(=O)[C@@]2(C)CO2)cc1 (stereo not given in full) ? 5.2

###

Assay: Selectivity ratio of IC50 for chymotrypsin-like activity of human 20s proteasome beta 5c subunit to IC50 for human proteasome subunit beta-5i chymotrypsin like activity
Rule for this label: 1.0 means Ratio IC50 is less than 2; 0.0 means Ratio IC50 is at least 2.

* COc1ccc(C[C@H](NC(=O)[C@@H](C)NC(=O)N2CC[C@H](OC)C2)C(=O)N[C@@H](Cc2ccccc2)C(=O)[C@@]2(C)CO2)cc1 | 0.0

# TODO verify Ratio IC50 < 2 strictly for this compound: COc1ccc(C[C@H](NC(=O)[C@@H](C)NC(=O)N2CCC(NC(=O)c3nccs3)CC2)C(=O)N[C@@H](CC2CCCCC2)C(=O)[C@@]2(C)CO2)cc1 0.0

Consider COc1ccc(C[C@H](NC(=O)[C@@H](C)NC(=O)N2CC[C@@H](OC)C2)C(=O)N[C@@H](Cc2ccccc2)C(=O)[C@@]2(C)CO2)cc1 . Does its Ratio IC50 lie strictly below 2? 0.0

Answer whether the compound C[C@@H](NC(=O)N1CCC(NC(=O)c2nccs2)CC1)C(=O)N[C@@H](Cc1c[nH]c2ccccc12)C(=O)N[C@@H](Cc1ccccc1)C(=O)[C@@]1(C)CO1 has Ratio IC50 strictly less than 2 1.0

Please state whether Ratio IC50 is below 2 for COc1ccc(C[C@H](NC(=O)[C@@H](C)NC(=O)N2CCC[C@@H](OC)C2)C(=O)N[C@@H](Cc2ccccc2)C(=O)[C@@]2(C)CO2)cc1 0.0

Dear colleague, could you confirm whether Ratio IC50 of COc1ccc(C[C@H](NC(=O)[C@H](C)NC(=O)n2c3ccccc3c3ccccc32)C(=O)N[C@@H](Cc2ccccc2)C(=O)[C@@]2(C)CO2)cc1 falls below 2? Thanks. 1.0

In the record for COc1ccc(C[C@H](NC(=O)[C@@H](C)NC(=O)N2CCc3ccccc3C2)C(=O)N[C@@H](Cc2ccccc2)C(=O)[C@@]2(C)CO2)cc1 , is Ratio IC50 less than 2? 0.0

Consider COc1ccc(C[C@H](NC(=O)[C@H](C)NC(=O)N2CCC(NC(=O)c3nccs3)CC2)C(=O)N[C@@H](CC2CCCCC2)C(=O)[C@@]2(C)CO2)cc1 . Does its Ratio IC50 lie strictly below 2? 1.0

Hi there! Is Ratio IC50 for COc1ccc(C[C@H](NC(=O)[C@@H](C)NC(=O)n2c3ccccc3c3ccccc32)C(=O)N[C@@H](Cc2ccccc2)C(=O)[C@@]2(C)CO2)cc1 below 2, do you know? 1.0

Please check: Ratio IC50 for COc1ccc(C[C@H](NC(=O)[C@H](C)NC(=O)N2CCc3ccccc3C2)C(=O)N[C@@H](Cc2ccccc2)C(=O)[C@@]2(C)CO2)cc1 , strictly under 2 or not? 1.0

Does this compound meet the criterion Ratio IC50 < 2? C[C@H](NC(=O)N1CCC(NC(=O)c2nccs2)CC1)C(=O)N[C@@H](Cc1c[nH]c2ccccc12)C(=O)N[C@@H](CC1CCCCC1)C(=O)[C@@]1(C)CO1 1.0

is_below(Ratio IC50, 2) for COc1ccc(C[C@H](NC(=O)[C@@H](C)NC(=O)N2CCC(OC)C2)C(=O)N[C@@H](Cc2ccccc2)C(=O)[C@@]2(C)CO2)cc1 (some centres undefined) ? 0.0

For COc1ccc(C[C@H](NC(=O)[C@@H](C)NC(=O)N2CCC(OC)CC2)C(=O)N[C@@H](Cc2ccccc2)C(=O)[C@@]2(C)CO2)cc1 , is the recorded Ratio IC50 below the cut-off of 2? 0.0

Data provenance: ChEMBL document CHEMBL4837231
